pIC50: −log10 of the molar value. Counter-ions that a name gives are not always drawn.
Read-out record for human PIM2 (Homo sapiens (Human), UniProt Q9P1W9): pIC50
PARAMETER: pIC50

Record excerpt, results attached:
INSERT INTO measurements (compound, numeric_readout) VALUES
  ('NCCC1CNC(=O)c2cc(-c3cccc(C(F)(F)F)c3)c(-c3ccsc3)n21 (stereo not shown) [Compound 40, hydrochloride]', 6.81),
  ('Cc1cccc(-c2c(-c3cc(Cl)ccc3F)cc3n2C(CCN)CNC3=O)c1 (stereo not shown) [Compound 59, hydrochloride]', 6.94),
  ('NCCC1CNC(=O)c2cc(-c3ccnc(Cl)c3)c(-c3ccc(CO)cc3)n21 (stereo not shown) [Compound 44, hydrochloride]', 6.96),
  ('NCC[C@H]1CNC(=O)c2cc(-c3cccc(OC(F)(F)F)c3)c(-c3ccc(C4(N)CC4)cc3)n21 [Compound 130, hydrochloride]', 8.52);

P: COc1ccc(-c2c(-c3cccc(OC(F)(F)F)c3)cc3n2[C@@H](CCN)CNC3=O)cc1Cl [Compound 129, hydrochloride]
Q: Cc1cccc(-c2c(-c3cccc(OC(F)(F)F)c3)cc3n2C(CCN)CNC3=O)c1 (stereo not shown) [Compound 31, hydrochloride]
R: CS(=O)(=O)c1ccc(-c2c(-c3cccc(OC(F)(F)F)c3)cc3n2[C@@H](CCN)CNC3=O)cc1 [Compound 96, hydrochloride]
Ask: Returns the items ordered by pIC50, from maximum to minimum. Arrange the labels as the request states and list them.
Reply: R, P, Q
(R: 8.52, P: 7.92, Q: 7.29)
